- System: OVCAR-3
- Assay name: NCI tumour cell line growth inhibition, 48 h
Active and inactive are the calls of the source. Rule as the data show it: active = GI50 up to about 1.1 µM and inactive = higher.
Parameter measured: GI50

[[record]]
compound = "O=C(c1ccccc1)N1CCC(Nc2nccs2)O1 (stereo not given)"
parameter_measured = "GI50"
measured_value = "> 10 µM (inactive)"

[[record]]
compound = "OCC(O)C(O)C(O)c1nn(-c2ccc(Cl)cc2)c2nc3cc(Cl)c(Cl)cc3nc12 (stereo not given)"
parameter_measured = "GI50"
measured_value = "> 100 µM (inactive)"

[[record]]
compound = "Cc1ccc(C)c(NC(=O)C(Cc2c[nH]c3ccccc23)NC(=O)OCc2ccccc2)c1 (stereo not given)"
parameter_measured = "GI50"
measured_value = "29.7 µM (inactive)"

[[record]]
compound = "CN(C)c1ccc(/C=C/C(=O)c2ccccc2)cc1Br"
parameter_measured = "GI50"
measured_value = "17.8 µM (inactive)"

[[record]]
compound = "Cc1cccc2nc3cccc(C(=O)NCCC[N+](C)(CCCNC(=O)c4cccc5nc6cccc(C)c6nc45)Cc4ccc([N+](=O)[O-])n4C)c3nc12"
parameter_measured = "GI50"
measured_value = "3.98 µM (inactive)"

[[record]]
compound = "Cc1ccc(C(=O)NC(C)(C)C)cc1/N=N/N(C)C"
parameter_measured = "GI50"
measured_value = "69.5 µM (inactive)"


Looking for the measured GI50 of Cc1ccc(O)c(Cc2nc3ccccc3nc2-c2cccc(Cl)c2)c1 , can you help?
68.9 µM (inactive)

What do you get for CCOC(=O)CCC(C(=O)OCC)n1nc2ccc(Nc3c(C)[n+]([O-])c4ccc(Cl)cc4[n+]3[O-])cc2n1 (stereo not given) ?
24.9 µM (inactive)

What do you get for COc1ccc(N(C(=O)NCCO)c2ccccc2)cc1 ?
> 100 µM (inactive)

What do you get for O=C1CCNC/C1=C\c1ccccc1 ?
22.9 µM (inactive)
